From: patent US20090306160A1

Molecular target: BCRP (Homo sapiens, UniProt Q9UNQ0)
Sequence (Q9UNQ0 whole entry, species assumed): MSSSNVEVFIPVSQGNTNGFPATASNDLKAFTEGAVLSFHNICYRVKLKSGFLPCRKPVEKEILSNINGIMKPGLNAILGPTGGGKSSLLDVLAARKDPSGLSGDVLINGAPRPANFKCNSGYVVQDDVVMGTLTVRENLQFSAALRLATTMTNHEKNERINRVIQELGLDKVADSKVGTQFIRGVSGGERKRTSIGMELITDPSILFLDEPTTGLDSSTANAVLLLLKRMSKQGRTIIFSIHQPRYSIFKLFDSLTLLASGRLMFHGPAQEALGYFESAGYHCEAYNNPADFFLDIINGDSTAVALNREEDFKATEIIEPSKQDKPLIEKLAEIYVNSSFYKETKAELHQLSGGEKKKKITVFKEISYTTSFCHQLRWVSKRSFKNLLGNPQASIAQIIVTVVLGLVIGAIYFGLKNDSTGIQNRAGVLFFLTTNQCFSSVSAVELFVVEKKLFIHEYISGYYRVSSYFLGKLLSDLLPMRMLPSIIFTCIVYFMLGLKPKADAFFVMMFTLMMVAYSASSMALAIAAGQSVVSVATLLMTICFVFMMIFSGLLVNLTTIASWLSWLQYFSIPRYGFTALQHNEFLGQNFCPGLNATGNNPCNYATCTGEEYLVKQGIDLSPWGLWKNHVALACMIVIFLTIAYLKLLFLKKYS
Assay: Vesicular uptake assay of [3H]E1S in membrane vesicles over-expressing BCRP
Conditions: [3H]E1S 0.5 μM, read-out: IC50, inhibition of [3H]E1S transport mediated by BCRP
pIC50: −log10 of the molar value.
assay-metric: pIC50

>>> meas_value("O=C(O)c1ccc(-n2nc(-c3ccccc3O)nc2-c2ccccc2O)cc1")
"~6.00"

###

Test: Caco-2 bi-directional permeability assay
Type: in vitro ADME
Settings: human, Caco-2; basolateral to apical; conc. 5 μM; read-out: Caco-2 permeability Papp(BL-AP) (converted)
assay-metric: Papp B→A at 5 μM (×10⁻⁶ cm/s)

>>> meas_value("O=C(O)c1ccc(-n2nc(-c3ccccc3O)nc2-c2ccccc2O)cc1 [Compound I]")
23.8

###

Test: Caco-2 bi-directional permeability assay
Format: in vitro ADME
Conditions: human, Caco-2; apical to basolateral; conc. 10 μM; read-out: Caco-2 permeability Papp(AP-BL) (converted)
assay-metric: Papp A→B at 10 μM

>>> meas_value("O=C(O)c1ccc(-n2nc(-c3ccccc3O)nc2-c2ccccc2O)cc1")
"11.6 ×10⁻⁶ cm/s"

###

Test: Caco-2 bi-directional permeability assay
Assay type: in vitro ADME
Settings: human, Caco-2; basolateral to apical; conc. 10 μM; read-out: Caco-2 permeability Papp(BL-AP) (converted)
Description: Alternatively, the in vitro transporter affinity of a drug substance can be determined and approximated by measuring the compound permeability across cells known to express ABC transporters, as e.g. the Caco-2 cell line. Interaction of Compound I with ABC transporter(s) is measured by determining the concentration-dependent compound transport across Caco-2 cell monolayers from the apical (AP) to basolateral (BL) as well as the basolateral to apical side.
assay-metric: Papp B→A at 10 μM

>>> meas_value("O=C(O)c1ccc(-n2nc(-c3ccccc3O)nc2-c2ccccc2O)cc1")
"22.2 ×10⁻⁶ cm/s"

###

Target: UniProt:Q92887
Sequence (Q92887 whole entry, species assumed): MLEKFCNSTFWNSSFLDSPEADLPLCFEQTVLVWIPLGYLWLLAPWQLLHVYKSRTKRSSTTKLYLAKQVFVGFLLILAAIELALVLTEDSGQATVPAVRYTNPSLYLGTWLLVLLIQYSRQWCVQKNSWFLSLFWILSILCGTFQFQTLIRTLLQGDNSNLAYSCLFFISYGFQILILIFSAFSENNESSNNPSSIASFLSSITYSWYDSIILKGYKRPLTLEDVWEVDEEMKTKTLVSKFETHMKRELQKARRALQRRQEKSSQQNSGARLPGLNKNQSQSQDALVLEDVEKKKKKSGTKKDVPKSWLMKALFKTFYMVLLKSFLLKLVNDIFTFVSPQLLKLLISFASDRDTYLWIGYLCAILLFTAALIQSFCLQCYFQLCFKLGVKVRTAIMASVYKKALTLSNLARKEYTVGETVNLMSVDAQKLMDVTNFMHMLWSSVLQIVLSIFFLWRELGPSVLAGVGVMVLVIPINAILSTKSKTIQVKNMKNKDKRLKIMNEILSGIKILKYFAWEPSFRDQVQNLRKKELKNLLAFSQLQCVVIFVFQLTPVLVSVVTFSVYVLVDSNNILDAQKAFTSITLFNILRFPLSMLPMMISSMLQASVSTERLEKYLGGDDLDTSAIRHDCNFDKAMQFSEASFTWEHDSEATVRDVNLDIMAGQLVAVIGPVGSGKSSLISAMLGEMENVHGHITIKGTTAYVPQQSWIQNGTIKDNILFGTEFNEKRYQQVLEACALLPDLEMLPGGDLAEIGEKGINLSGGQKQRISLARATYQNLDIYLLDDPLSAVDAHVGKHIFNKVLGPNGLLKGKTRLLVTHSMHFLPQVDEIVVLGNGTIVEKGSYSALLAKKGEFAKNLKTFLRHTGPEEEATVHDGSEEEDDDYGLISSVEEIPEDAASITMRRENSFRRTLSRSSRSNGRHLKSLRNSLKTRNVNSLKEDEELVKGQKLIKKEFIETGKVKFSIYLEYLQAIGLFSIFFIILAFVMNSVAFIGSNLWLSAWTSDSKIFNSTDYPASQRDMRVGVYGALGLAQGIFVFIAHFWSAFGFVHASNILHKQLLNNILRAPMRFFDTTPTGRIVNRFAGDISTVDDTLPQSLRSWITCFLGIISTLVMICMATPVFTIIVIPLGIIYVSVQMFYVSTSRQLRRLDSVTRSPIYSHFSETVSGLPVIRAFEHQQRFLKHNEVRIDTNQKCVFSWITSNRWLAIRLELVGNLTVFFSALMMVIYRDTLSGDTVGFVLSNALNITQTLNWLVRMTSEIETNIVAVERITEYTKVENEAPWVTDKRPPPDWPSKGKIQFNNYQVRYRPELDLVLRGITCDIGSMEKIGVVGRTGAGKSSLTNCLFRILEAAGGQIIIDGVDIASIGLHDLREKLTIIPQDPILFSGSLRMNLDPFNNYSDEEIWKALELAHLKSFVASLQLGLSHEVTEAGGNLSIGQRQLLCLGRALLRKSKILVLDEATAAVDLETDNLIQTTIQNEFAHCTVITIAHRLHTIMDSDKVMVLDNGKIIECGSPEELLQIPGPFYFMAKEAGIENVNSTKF
Assay: Vesicular uptake assay of [3H]LTC4 in membrane vesicles over-expressing MRP2
Settings: membrane vesicles, [3H]LTC4 0.2 μM; read-out: IC50, inhibition of [3H]LTC4 transport mediated by MRP2
assay-metric: IC50

>>> meas_value("O=C(O)c1ccc(-n2nc(-c3ccccc3O)nc2-c2ccccc2O)cc1")
"~50 µM"

###

Experiment: Caco-2 bi-directional permeability assay
Assay type: in vitro ADME
Details: human, Caco-2; apical to basolateral; conc. 50 μM; read-out: Caco-2 permeability Papp(AP-BL) (converted)
assay-metric: Papp A→B at 50 μM (×10⁻⁶ cm/s)

>>> meas_value("O=C(O)c1ccc(-n2nc(-c3ccccc3O)nc2-c2ccccc2O)cc1")
14.6
